- study.target: hAM1R (human, UniProt Q16602)
- assay.comment: cell-based or functional assay
Bridge positions count the residues as written; N and C are the ends. Square brackets hold non-standard residues; d marks the D form. Ends that are not written are not given here. Hyp = O=C(O)[C@@H]1C[C@@H](O)CN1
Consider the following binders; for each one, report its hAM1R EC50 (cAMP).

Here's what some known entries look like.
{"columns": ["binder", "experimental.readout", "value.reported"],
 "data": [
  ["GCRTGTCTVQRLAHQIYQFTDKFKDNVAPRSKISPQK[Hyp]-NH2 (disulfide 2-7 (inferred); ends not checked) [SEQ ID NO: 206]", "hAM1R EC50 (cAMP)", "> 5 µM"],
  ["GCRTGTCTVQRLAHQIYQFTNKDKDNVAPRSKISPQTR [SEQ ID NO: 242]", "hAM1R EC50 (cAMP)", "> 5 µM"]
]}

# input for lookup
QUERY: Find the recorded hAM1R EC50 (cAMP) belonging to KCNTATCATQRLANFLVHSSNNFGAILPSTKIGPNGY [SEQ ID NO: 162] and report it.
RESULT: > 5 µM
